testedOn: T1, human ferroportin (SLC40A1) fused in frame with GFP, stably expressed in HEK293 cells (human, UniProt Q9NP59 1-571)
T1 sequence (looked up): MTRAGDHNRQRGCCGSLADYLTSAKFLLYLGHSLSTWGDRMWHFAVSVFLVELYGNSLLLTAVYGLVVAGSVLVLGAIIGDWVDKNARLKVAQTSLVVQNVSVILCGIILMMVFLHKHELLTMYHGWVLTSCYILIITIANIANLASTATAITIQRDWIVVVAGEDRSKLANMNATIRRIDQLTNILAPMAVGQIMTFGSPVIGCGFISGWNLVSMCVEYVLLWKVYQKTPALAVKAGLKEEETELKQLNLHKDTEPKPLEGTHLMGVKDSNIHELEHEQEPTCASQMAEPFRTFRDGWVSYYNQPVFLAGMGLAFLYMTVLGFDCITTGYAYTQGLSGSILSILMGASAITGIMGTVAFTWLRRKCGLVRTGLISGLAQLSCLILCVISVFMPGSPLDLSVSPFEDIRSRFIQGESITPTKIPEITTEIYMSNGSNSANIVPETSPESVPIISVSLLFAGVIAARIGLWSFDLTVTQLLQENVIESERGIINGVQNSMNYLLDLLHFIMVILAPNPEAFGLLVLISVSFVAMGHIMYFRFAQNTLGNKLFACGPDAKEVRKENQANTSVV
methodDescription: cell-based or functional assay
Numbered stars: 1 amine (or outer) side, 2 acyl side, 3 side chain; on linkers, the order of the positions; unused ones are H or OH. Bridge positions count the residues as written; N and C are the ends. Square brackets hold non-standard residues; d marks the D form. Ends that are not written are not given here. * marks the point of attachment. Ida = iminodiacetic acid, O=C(CN(CC(=O)[*:3])[*:1])[*:2]; Isovaleryl = CC(C)CC(=O)*
Parameter: Potency EC50 (nM), ferroportin-GFP internalization/degradation. Scope: all listed entries.
readoutName: Potency EC50 (nM), ferroportin-GFP internalization/degradation

>>> readoutvalue("H-DTHFPCIIFGPRSKGWAVCYW-NH2 (not fully specified (bridges); printed as Hy-DTHFPCIIFGPRSKGWAVCYW-NH2; cysteine pairing not given here) [Hy-DTHFPCIIFGPRSKGWAVCYW-NH2]")
197
>>> readoutvalue("Isovaleryl-DTHFPCIKFEPRSKEWVCK-NH2 (disulfide 6-18 (inferred)) [Isovaleric acid-DTHFPCIKFEPRSKEWVCK-NH2]")
20
>>> readoutvalue("[Ida]THFPCIKFEPRSKGWVCK(mysteric acid)-NH2 (disulfide 6-18 (inferred)) [Ida-THFPCIKFEPRSKGWVC-K(mysteric acid)-NH2]")
20

// provenance: patent US20170313754A1
